// data source = the supplement of paper PMC12582362

tested on: optoTopBP1 Flp-In 293 T-REx (HEK293) cells; test: light-induced TopBP1 condensate (nuclear foci) count, plate-normalised robust z-score vs non-control wells; higher = more TopBP1 condensates (negative = condensation inhibitor), active = hit call of the paper; conditions: 10 µM; incubation time 2 h
Where a name gives a salt, the structure may show the parent alone. In all, about 1,500 compounds went through this assay and about 30 (2%) showed activity. The list comes from a sample in which actives are over-represented; it also holds close analogues and randomly drawn compounds.
light-induced TopBP1 condensate (z-score) vs 0.6: at or above is Fulfilled, below is Not fulfilled.

Reported light-induced TopBP1 condensate (z-score) at or above 0.6? "CC=CC(=O)N(CC)c1ccccc1C"
Not fulfilled

Reported light-induced TopBP1 condensate (z-score) at or above 0.6? "C#Cc1cccc(Nc2ncnc3cc(OCCOC)c(OCCOC)cc23)c1"
Fulfilled

Reported light-induced TopBP1 condensate (z-score) at or above 0.6? "O=C(O)COc1nn(Cc2ccccc2)c2ccccc12"
Not fulfilled

Reported light-induced TopBP1 condensate (z-score) at or above 0.6? CN(C)[C@@H]1C(O)=C(C(N)=O)C(=O)[C@@]2(O)C(O)=C3C(=O)c4c(O)cccc4[C@@](C)(O)[C@H]3C[C@@H]12 [Tetracycline hydrochloride]
Not fulfilled

Reported light-induced TopBP1 condensate (z-score) at or above 0.6? CCc1ccc(C(=O)C(C)CN2CCCCC2)cc1 (stereo unspecified) [Eperisone HCl]
Fulfilled

Reported light-induced TopBP1 condensate (z-score) at or above 0.6? "O=C1[C@H]2CCCC[C@H]2C(=O)N1CCCCN1CCN(c2nsc3ccccc23)CC1"
Not fulfilled

Reported light-induced TopBP1 condensate (z-score) at or above 0.6? CC(=O)OCC(=O)[C@@]1(O)CC[C@H]2[C@@H]3CCC4=CC(=O)C=C[C@]4(C)[C@@]3(F)[C@@H](O)C[C@@]21C [Isoflupredone acetate]
Not fulfilled

Reported light-induced TopBP1 condensate (z-score) at or above 0.6? COc1cccc(CCc2ccccc2OCC(CN(C)C)OC(=O)CCC(=O)O)c1 (stereo unspecified) [Sarpogrelate hydrochloride]
Fulfilled

Reported light-induced TopBP1 condensate (z-score) at or above 0.6? CN(C)C(=O)COC(=O)Cc1ccc(OC(=O)c2ccc(NC(=N)N)cc2)cc1 [Camostat mesylate]
Not fulfilled

Reported light-induced TopBP1 condensate (z-score) at or above 0.6? CO/N=C(\C(=O)N[C@@H]1C(=O)N2C(C(=O)OC(C)OC(C)=O)=C(COC(N)=O)CS[C@H]12)c1ccco1 (stereo partly specified)
Not fulfilled

Reported light-induced TopBP1 condensate (z-score) at or above 0.6? CCC[C@@H]1C[C@@H](C(=O)N[C@@H]([C@H]2O[C@H](SC)[C@H](O)[C@@H](O)[C@H]2O)[C@H](C)Cl)N(C)C1 [Clindamycin hydrochloride]
Not fulfilled

Reported light-induced TopBP1 condensate (z-score) at or above 0.6? "Nc1nc(=S)c2ncn([C@@H]3O[C@H](CO)[C@@H](O)[C@H]3O)c2[nH]1"
Fulfilled

Reported light-induced TopBP1 condensate (z-score) at or above 0.6? "CC(C)(CO)[C@@H](O)C(=O)NCCC(=O)NCCSSCCNC(=O)CCNC(=O)[C@H](O)C(C)(C)CO"
Not fulfilled

Reported light-induced TopBP1 condensate (z-score) at or above 0.6? CN(C)CC/C=C1/c2ccccc2COc2ccc(CC(=O)O)cc21 [Olopatadine hydrochloride]
Not fulfilled

Reported light-induced TopBP1 condensate (z-score) at or above 0.6? "CC(=O)N[C@@H](CC(=O)N[C@@H](CCC(=O)O)C(=O)O)C(=O)O"
Fulfilled

Reported light-induced TopBP1 condensate (z-score) at or above 0.6? CCOc1ccccc1OCCN[C@H](C)Cc1ccc(OC)c(S(N)(=O)=O)c1 [(R)-Tamsulosin hydrochloride]
Not fulfilled
